FYI, the data here is from patent US12600732B2.

Biological target: TEC kinase (Homo sapiens, UniProt P42680)
Construct: endogenous in cells; host or cells: K562
Sequence (P42680 whole entry): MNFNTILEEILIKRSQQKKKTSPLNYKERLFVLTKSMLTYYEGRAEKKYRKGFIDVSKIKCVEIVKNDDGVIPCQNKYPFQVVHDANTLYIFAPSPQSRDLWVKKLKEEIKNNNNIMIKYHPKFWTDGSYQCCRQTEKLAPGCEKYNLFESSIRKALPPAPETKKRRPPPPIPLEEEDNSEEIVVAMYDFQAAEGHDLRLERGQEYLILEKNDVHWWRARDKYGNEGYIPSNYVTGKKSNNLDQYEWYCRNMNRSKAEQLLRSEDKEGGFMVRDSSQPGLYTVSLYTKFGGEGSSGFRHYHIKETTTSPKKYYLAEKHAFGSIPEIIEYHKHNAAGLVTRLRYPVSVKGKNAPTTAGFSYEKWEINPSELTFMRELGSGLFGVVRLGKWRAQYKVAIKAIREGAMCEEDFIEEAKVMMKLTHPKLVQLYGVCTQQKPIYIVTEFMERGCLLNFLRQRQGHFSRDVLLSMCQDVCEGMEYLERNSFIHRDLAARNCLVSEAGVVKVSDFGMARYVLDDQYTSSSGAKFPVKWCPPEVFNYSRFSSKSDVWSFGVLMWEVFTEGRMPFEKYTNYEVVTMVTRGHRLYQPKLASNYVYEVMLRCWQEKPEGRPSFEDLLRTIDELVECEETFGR
Assay: TEC kinase degradation in K562 cells (western blot)
Format: cell-based
Details: four hours, 0.026-2000 nM, western blot, FIGS. 13A-13D
Readout Kind: effects on TEC kinase levels

Molecule	Readout Kind	Value Measured
NC(=O)c1ncc(N2CCCCC2)nc1Nc1ccc(C2CCN(C[C@@H]3CCN(c4ccc5c(c4)C(=O)N(C4CCC(=O)NC4=O)C5=O)C3)CC2)cc1 (stereo partly shown) [Compound 149]	effects on TEC kinase levels	mild to moderate effects
CN1CCN([C@H]2CCCN(c3cnc(C(N)=O)c(Nc4ccc(C5CCN(CC6CCN(c7ccc(C(=O)NC8CCC(=O)NC8=O)nc7)CC6)CC5)cc4)n3)C2)C1=O (stereo partly shown) [Compound 130]	effects on TEC kinase levels	mild to moderate effects
CN1CCN([C@@H]2CCCN(c3cnc(C(N)=O)c(Nc4ccc(C5CCN(CC6CCN(c7ccc8c(=O)n(C9CCC(=O)NC9=O)ccc8c7)CC6)CC5)cc4)n3)C2)C1=O (stereo partly shown) [Compound 72]	effects on TEC kinase levels	mild to moderate effects
CN1CCN([C@@H]2CCCN(c3cnc(C(N)=O)c(Nc4ccc(C5CCN(C[C@H]6CCN(c7ccc8c(c7)C(=O)N(C7CCC(=O)NC7=O)C8=O)C6)CC5)cc4)n3)C2)C1=O (stereo partly shown) [Compound 44]	effects on TEC kinase levels	mild to moderate effects

----------
Experiment: Compound plasma exposure in mouse (CD-1), daily oral dosing, same table as the cyno DRF study
Format: in vivo
Details: CD-1, mouse, 30 mg/kg, 30 mg/kg PO, 1 day of dosing
Readout Kind: Cmax (nM)
Field format: number, assumed nM, no unit text.

Compound	Readout Kind	Value Measured
CN1CCN([C@H]2CCCN(c3cnc(C(N)=O)c(Nc4ccc(C5CCN(CC6CCN(c7ccc(C(=O)NC8CCC(=O)NC8=O)nc7)CC6)CC5)cc4)n3)C2)C1=O (stereo partly drawn)	Cmax	2200

Form: compound = CN1CCN([C@@H]2CCCN(c3cnc(C(N)=O)c(Nc4ccc(C5CCN(C[C@H]6CCN(c7ccc8c(c7)C(=O)N(C7CCC(=O)NC7=O)C8=O)C6)CC5)cc4)n3)C2)C1=O (stereo partly drawn) ; Cmax = 230

Cmax for NC(=O)c1ncc(N2CCCCC2)nc1Nc1ccc(C2CCN(C[C@@H]3CCN(c4ccc5c(c4)C(=O)N(C4CCC(=O)NC4=O)C5=O)C3)CC2)cc1 (stereo partly drawn) is 940

----------
This listing pairs molecules with measured bioavailability.
Assay: PK data for BTK CTMs (in vivo plasma concentrations)
Settings: Mouse Balb/c, 10 mg/kg PO
Quick reminder: number only, in %, skip the unit.

Molecule	bioavailability [%]
NC(=O)c1ncc(N2CCCCC2)nc1Nc1ccc(C2CCN(C[C@@H]3CCN(c4ccc5c(c4)C(=O)N(C4CCC(=O)NC4=O)C5=O)C3)CC2)cc1 (stereo partly drawn)	35
CN1CCN([C@@H]2CCCN(c3cnc(C(N)=O)c(Nc4ccc(C5CCN(CC6CCN(c7ccc8c(=O)n(C9CCC(=O)NC9=O)ccc8c7)CC6)CC5)cc4)n3)C2)C1=O (stereo partly drawn)	7

Entry CN1CCN([C@H]2CCCN(c3cnc(C(N)=O)c(Nc4ccc(C5CCN(CC6CCN(c7ccc(C(=O)NC8CCC(=O)NC8=O)nc7)CC6)CC5)cc4)n3)C2)C1=O (stereo partly drawn) , bioavailability reported as 17

----------
Each entry below carries its recorded CD25 Staining Anti-CD3/Anti-CD28 Stimulation.
Test system: primary human T cells
Test: T cell activation assay, CD25 and CD69 staining (flow cytometry)
Assay type: cell-based
Settings: 1.4 nM; fold-change of response relative to baseline
Please state the value as a number alone, without comment.

Example molecules with recorded CD25 Staining Anti-CD3/Anti-CD28 Stimulation:
Molecule	Value Measured
CN1CCN([C@@H]2CCCN(c3cnc(C(N)=O)c(Nc4ccc(N5CC6(C5)CN(c5ccc7c(c5)C(=O)N(C5CCC(=O)NC5=O)C7=O)C6)cc4)n3)C2)C1=O (some centres unmarked) [Compound 34]	1.21
CN1CCN([C@H]2CCCN(c3cnc(C(N)=O)c(Nc4cnn(C5CCN(CC6CN(c7ccc8c(c7)C(=O)N(C7CCC(=O)NC7=O)C8=O)C6)CC5)c4)n3)C2)C1=O (some centres unmarked) [Compound 78]	0.99
CN1CCN([C@@H]2CCCN(c3cnc(C(N)=O)c(Nc4ccc(C5CCN(CCCNc6cccc7c6C(=O)N(C6CCC(=O)NC6=O)C7=O)CC5)cc4)n3)C2)C1=O (some centres unmarked) [Compound 155]	1.31
CN1CCN([C@@H]2CCCN(c3cnc(C(N)=O)c(Nc4ccc(C5CCN(C6CN(c7ccc8c(c7)C(=O)N(C7CCC(=O)NC7=O)C8=O)C6)CC5)cc4)n3)C2)C1=O (some centres unmarked) [Compound 53]	1.09

Could you now look at the following molecule, please?
CN1CCN([C@@H]2CCCN(c3cnc(C(N)=O)c(Nc4ccc(C5CCN(CC6CCN(c7ccc8c(c7)C(=O)N(C7CCC(=O)NC7=O)C8=O)CC6)CC5)cc4)n3)C2)C1=O (some centres unmarked) [Compound 51] yielded CD25 Staining Anti-CD3/Anti-CD28 Stimulation of 0.86

----------
System: TMD8 cells
Assay: Cell viability assay (CellTiter-Glo), TMD8 cells
Details: TMD8 cells, treatment time 72 h
Measured EMAX (% viable cells), listed per entry.
The answer is to be given in %; state only the numeric part.

A selection of reference data follows.
Compound	Value Measured
CN1CCN([C@@H]2CCCN(c3cnc(C(N)=O)c(Nc4ccc(C5CCN(CC6CCN(c7ccc(-c8nn(C9CCC(=O)NC9=O)c(=O)n8C)cc7)CC6)CC5)cc4)n3)C2)C1=O (stereo partly drawn)	28
CN1CCN([C@@H]2CCCN(c3cnc(C(N)=O)c(Nc4ccc(C5CCN(CC6CCN(c7ccc8c(=O)n(C9CCC(=O)NC9=O)ccc8c7)CC6)CC5)cc4)n3)C2)C1=O (stereo partly drawn)	26
CN1CCN([C@@H]2CCCN(c3cnc(C(N)=O)c(Nc4ccc(N5CCN(C[C@H]6CCN(c7ccc8c(c7)C(=O)N(C7CCC(=O)NC7=O)C8=O)C6)CC5)cc4)n3)C2)C1=O (stereo partly drawn)	40

So the reported EMAX (% viable cells) for C=CC(=O)N1CCC[C@@H](n2nc(-c3ccc(Oc4ccccc4)cc3)c3c(N)ncnc32)C1 [Ibrutinib, reference compound] , on TMD8 cells, turned out to be 16

Entry NC(=O)c1ncc(N2CCCCC2)nc1Nc1ccc(C2CCN(C[C@@H]3CCN(c4ccc5c(c4)C(=O)N(C4CCC(=O)NC4=O)C5=O)C3)CC2)cc1 (stereo partly drawn) : EMAX (% viable cells) on TMD8 cells = 7

Entry NC(=O)c1ncc(N2CCC[C@@H](N3CCOC3=O)C2)nc1Nc1ccc(C2CCN(C[C@H]3CCN(c4ccc5c(c4)C(=O)N(C4CCC(=O)NC4=O)C5=O)C3)CC2)cc1 (stereo partly drawn) , TMD8 cells data, EMAX (% viable cells) value: 25

----------
Assay: PK data for BTK CTMs (in vivo plasma concentrations)
Settings: Mouse Balb/c, 1 mg/kg IV, read-out: Volume of Distribution
Readout Kind: Vd (L/kg)
Reply with just the number (in L/kg).

Compound	Value Measured
CN1CCN([C@H]2CCCN(c3cnc(C(N)=O)c(Nc4cnn(C5CCN(CC6CCN(c7ccc8c(c7)C(=O)N(C7CCC(=O)NC7=O)C8=O)CC6)CC5)c4)n3)C2)C1=O (stereo partly shown) [Compound 83]	4

For reference, reported Vd for CN1CCN([C@@H]2CCCN(c3cnc(C(N)=O)c(Nc4ccc(C5CCN(C6CN(c7ccc8c(c7)C(=O)N(C7CCC(=O)NC7=O)C8=O)C6)CC5)cc4)n3)C2)C1=O (stereo partly shown) [Compound 53] stands at 0.88

----------
Target: BTK (Mus musculus, UniProt P35991)
Construct: from tissue; host or cells: mouse blood B cells / splenocytes (CD-1 or BALB/c)
Sequence (P35991 whole entry): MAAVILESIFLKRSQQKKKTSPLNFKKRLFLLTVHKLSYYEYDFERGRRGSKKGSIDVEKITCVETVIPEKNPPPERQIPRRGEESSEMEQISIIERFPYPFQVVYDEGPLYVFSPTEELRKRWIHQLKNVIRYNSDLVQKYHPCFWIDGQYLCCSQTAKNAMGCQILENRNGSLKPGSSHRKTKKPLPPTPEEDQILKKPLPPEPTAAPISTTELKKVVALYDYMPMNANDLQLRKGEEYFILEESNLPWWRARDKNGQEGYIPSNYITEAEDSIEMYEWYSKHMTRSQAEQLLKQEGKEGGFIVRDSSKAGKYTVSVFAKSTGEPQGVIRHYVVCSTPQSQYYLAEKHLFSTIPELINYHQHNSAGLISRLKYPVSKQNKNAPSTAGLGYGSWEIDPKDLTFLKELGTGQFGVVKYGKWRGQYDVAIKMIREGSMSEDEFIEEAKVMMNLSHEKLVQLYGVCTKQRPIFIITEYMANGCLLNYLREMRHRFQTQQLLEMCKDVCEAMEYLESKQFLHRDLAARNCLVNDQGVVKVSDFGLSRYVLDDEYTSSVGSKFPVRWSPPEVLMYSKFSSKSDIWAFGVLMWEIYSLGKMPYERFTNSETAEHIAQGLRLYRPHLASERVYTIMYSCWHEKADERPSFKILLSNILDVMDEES
Assay: In vivo degradation of BTK in mouse PD experiments with oral dosing
Conditions: oral dose 30 mg/kg, 24 h, splenocytes, HTRF
Output y for records whose % BTK Remaining is lower than 30%, n for records at or above 30%.

Compound	Cat
CN1CCN([C@@H]2CCCN(c3cnc(C(N)=O)c(Nc4cnc(N5CCN(C[C@H]6CCN(c7ccc8c(c7)C(=O)N([C@@H]7CCC(=O)NC7=O)C8=O)C6)CC5)nc4)n3)C2)C1=O	n
Cc1cc(Nc2nc(N3CCC[C@@H](N4CCC5(CCN(CC6CCN(c7ccc8c(c7)C(=O)N(C7CCC(=O)NC7=O)C8=O)CC6)CC5)C4=O)C3)cnc2C(N)=O)sn1 (some centres unmarked)	n

Please determine if NC(=O)c1ncc(N2CCCCC2)nc1Nc1ccc(C2CCN(CC3CCN(c4ccc(OC5CCC(=O)NC5=O)cn4)CC3)CC2)cc1 (centres unmarked) is below 30% in terms of % BTK Remaining. y

Say whether its % BTK Remaining is strictly beneath 30%. Entry: NC(=O)c1ncc(N2CCC[C@@H](N3CCOC3=O)C2)nc1Nc1ccc(C2CCN(C[C@H]3CCN(c4ccc5c(c4)C(=O)N(C4CCC(=O)NC4=O)C5=O)C3)CC2)cc1 (some centres unmarked) y

Report whether reported % BTK Remaining is lower than 30% (strictly) for CN1CCN([C@@H]2CCCN(c3cnc(C(N)=O)c(Nc4ccc(C5CN(CC6CCN(c7ccc8c(=O)n(C9CCC(=O)NC9=O)ccc8c7)CC6)C5)cc4)n3)C2)C1=O (some centres unmarked) n

Input CN1CCN([C@@H]2CCCN(c3cnc(C(N)=O)c(Nc4ccc(C5CCN(CC6CCN(c7ccc(-c8nn(C9CCC(=O)NC9=O)c(=O)n8C)cc7)CC6)CC5)cc4)n3)C2)C1=O (some centres unmarked) ; condition: % BTK Remaining strictly below 30%. Does it hold? n

Consider the compound CN1CCN([C@@H]2CCCN(c3cnc(C(N)=O)c(Nc4ccc(C5CCN(CC6CCN(c7ccc(NC8CCC(=O)NC8=O)nc7)CC6)CC5)cc4)n3)C2)C1=O (some centres unmarked) . Is its % BTK Remaining strictly less than 30%? y

Given CN1CCN([C@@H]2CCCN(c3cnc(C(N)=O)c(Nc4ccc(N5CCN(C[C@H]6CCN(c7ccc8c(c7)C(=O)N(C7CCC(=O)NC7=O)C8=O)C6)CC5)nc4)n3)C2)C1=O (some centres unmarked) , is recorded % BTK Remaining strictly lower than 30%? n
